molecular target: T1, human G-protein-coupled receptor family C group 5 member D (GPRC5D) (human, UniProt Q9NZD1 1-345); assay: FACS, CHO-K1/GPRC5D
T1 construct: whole, on cells; also called human GPRC5D protein
T1 sequence (Q9NZD1 whole entry): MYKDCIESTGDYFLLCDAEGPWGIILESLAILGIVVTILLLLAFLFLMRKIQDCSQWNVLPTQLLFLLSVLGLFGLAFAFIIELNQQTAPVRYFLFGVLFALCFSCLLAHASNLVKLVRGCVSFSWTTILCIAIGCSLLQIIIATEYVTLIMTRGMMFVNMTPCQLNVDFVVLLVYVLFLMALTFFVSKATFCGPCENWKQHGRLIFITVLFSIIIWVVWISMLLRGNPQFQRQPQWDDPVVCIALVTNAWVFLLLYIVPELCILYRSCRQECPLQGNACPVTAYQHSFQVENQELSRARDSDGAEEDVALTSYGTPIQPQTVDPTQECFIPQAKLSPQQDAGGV
Could you please report measured LogEC50 for the items listed next?
Answers are plain numbers.

Example binders with recorded LogEC50:
INSERT INTO assay_data (binder, measurement_type, measured) VALUES
  ('34-H1L3 (antibody, V domains shown, humanized 34D3H1, VH v1 x VL v3) VH: EVQLVESGGGLVKPGGSLRLSCAASGFTFSSYGMSWVRQAPGKGLEWVSTISSGGSYTYYPDSVKGRFTISRDNAKNSLYLQMNSLRAEDTAVYYCARQGGDAMDYWGQGTLVTVSS VL: DIQLTQSPSSLSASVGDRVTITCRASQSINNNLHWYQQKPGKSPKLLIYYASQSISGIPSRFSGSGSGTDFTLTISSVQPEDFATYFCQQSNSRLTFGGGTKLEIK', 'LogEC50', 0.573),
  ('34-H2L1 (antibody, V domains shown, humanized 34D3H1, VH v2 x VL v1) VH: EVQLVESGGGLVKPGGSLRLSCAASGFTFSSYGMSWVRQTPGKGLEWVATISSGGSYTYYPDSVKGRFTISRDNAKNSLYLQMSSLRAEDTAVYYCARQGGDAMDYWGQGTLVTVSS VL: DIQMTQSPSSLSASVGDRVTITCRASQSINNNLHWYQQKPGKAPKLLIYYASQSISGVPSRFSGSGSGTDFTLTISSLQPEDFATYYCQQSNSRLTFGGGTKVEIK', 'LogEC50', 0.619);

The record that follows has no LogEC50 shown yet.
Request the reported LogEC50 associated with 34-H3L2 (antibody, V domains shown, humanized 34D3H1, VH v3 x VL v2) VH: EVHLVESGGGLVKPGGSLRLSCAASGFTFSSYGMSWVRQTPGKRLEWVATISSGGSYTYYPDSVKGRFTISRDNAKNSLNLQMSSLRAEDTAVYYCARQGGDAMDYWGQGTLVTVSS VL: DIQMTQSPSSLSASVGDRVTITCRASQSINNNLHWYQQKPGKAPKLLIYYASQSISGIPSRFSGSGSGTDFTLTISSVQPEDFATYFCQQSNSRLTFGGGTKVEIK 0.646
